Numbers sourced from PubChem BioAssay AID1963961.

Test system: K98450-129-R-PDC multicell spheroids, viability;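 note: spheroids exposed to agents for seven days before read-out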
Test: Anticancer human tumor K98450-129-R-PDC patient-derived colon adenocarcinoma cell line growth inhibition [PI3K]
Settings: second compound 1 µM; first compound 0.0316 µM; hits give low values
viability, T/C values by entry

compound	viability, T/C / %
CC(Cn1ccc(-c2ccc(C#N)c(Cl)c2)n1)NC(=O)c1cc(C(C)O)[nH]n1 (stereo not drawn) + COc1c(OCCCN2CCOCC2)ccc2c3n(c(=NC(=O)c4cnc(N)nc4)nc12)CCN3	48.5
CC1(C)CCC(Nc2ncc(C(F)(F)F)c(-c3c[nH]c4c(P(C)(C)=O)c(C#N)ccc34)n2)CN1 (stereo not drawn) + Cc1nc(NC(=O)N2CCCC2C(N)=O)sc1-c1ccnc(C(C)(C)C(F)(F)F)c1	103
C=CC(=O)N1CCN(c2nc(=O)n(-c3c(C)ccnc3C(C)C)c3nc(-c4c(O)cccc4F)c(F)cc23)C(C)C1 (stereo not drawn) + Cc1nc(NC(=O)N2CCCC2C(N)=O)sc1-c1ccnc(C(C)(C)C(F)(F)F)c1	90.5
